- Test target: Ephrin type-B receptor 2 (Homo sapiens) (UniProt P29323)
- Sequence (P29323 whole entry): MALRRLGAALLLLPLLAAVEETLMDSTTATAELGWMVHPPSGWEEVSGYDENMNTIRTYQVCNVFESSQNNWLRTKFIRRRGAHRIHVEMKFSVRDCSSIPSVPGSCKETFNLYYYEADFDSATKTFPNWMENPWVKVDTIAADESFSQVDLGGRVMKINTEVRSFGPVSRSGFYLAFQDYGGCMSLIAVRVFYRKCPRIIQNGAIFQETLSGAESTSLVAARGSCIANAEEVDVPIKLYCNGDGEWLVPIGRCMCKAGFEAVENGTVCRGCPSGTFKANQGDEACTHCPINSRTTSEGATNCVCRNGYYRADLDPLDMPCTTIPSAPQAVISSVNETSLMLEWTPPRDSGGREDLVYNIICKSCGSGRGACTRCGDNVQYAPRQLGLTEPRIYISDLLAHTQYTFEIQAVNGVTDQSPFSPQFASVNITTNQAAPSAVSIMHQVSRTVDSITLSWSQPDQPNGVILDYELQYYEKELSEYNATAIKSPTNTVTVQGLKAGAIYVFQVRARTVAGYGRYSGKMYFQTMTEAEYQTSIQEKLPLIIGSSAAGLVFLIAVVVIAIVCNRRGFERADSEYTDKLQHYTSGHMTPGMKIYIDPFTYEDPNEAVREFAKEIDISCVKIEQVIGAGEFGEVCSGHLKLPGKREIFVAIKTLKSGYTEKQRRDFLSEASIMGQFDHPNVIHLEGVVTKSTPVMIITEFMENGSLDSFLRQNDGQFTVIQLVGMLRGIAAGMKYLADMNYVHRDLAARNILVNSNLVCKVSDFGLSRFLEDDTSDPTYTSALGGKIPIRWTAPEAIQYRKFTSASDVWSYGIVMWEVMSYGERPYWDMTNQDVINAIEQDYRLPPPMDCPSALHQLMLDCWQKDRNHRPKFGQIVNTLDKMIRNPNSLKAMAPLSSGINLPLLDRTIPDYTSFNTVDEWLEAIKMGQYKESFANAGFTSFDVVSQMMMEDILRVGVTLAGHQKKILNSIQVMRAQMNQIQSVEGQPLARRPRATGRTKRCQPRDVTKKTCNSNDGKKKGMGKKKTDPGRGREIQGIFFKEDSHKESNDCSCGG
- Experimental context: at 1 µM
- Description: GSK_PKIS: EPHB2 mean inhibition at 1 uM [Nanosyn]
If the reported inhibition equals or exceeds 10%, assign True. If not, assign False.

# Record smiles, Label value
rows = [
    ("Nc1nc(-c2ccc(F)cc2)c(-c2ccc3ncccc3n2)s1", "True"),
    ("Fc1ccc(-c2nn3ncccc3c2-c2ccnc(Nc3ccc4c(c3)OCCO4)n2)cc1", "True"),
    ("CC(=O)NCc1cccc(C#Cc2cncnc2Nc2ccc(OCc3cccc(F)c3)c(Cl)c2)c1", "False"),
    ("N#Cc1c(NC(=O)CN2CCOCC2)sc2c1CCCC2", "True"),
    ("CC(C)(CO)CNC(=O)c1ccc2c(c1)/C(=N/Nc1ccc(S(N)(=O)=O)cc1)C(=O)N2", "False"),
    ("CCOc1ccc2c(-c3ccnc(Nc4cccc(C(F)(F)F)c4)n3)cnn2n1", "False"),
    ("CCn1c(-c2nonc2N)nc2c(C#CC(C)(C)O)ncc(OC3CCNCC3)c21", "False"),
    ("c1ccc(-c2nc3n(c2-c2ccc4c(c2)OCO4)CCC3)nc1", "False"),
    ("COc1ccc(-c2oc3ncnc(N)c3c2-c2ccc(NC(=O)Nc3cc(C(F)(F)F)ccc3F)cc2)cc1", "True"),
    ("Cc1cccc2c1NC(=O)/C2=N\\Nc1ccc(S(N)(=O)=O)cc1", "False"),
]

----------
- Test target: Non-receptor tyrosine-protein kinase TNK1 (Homo sapiens) (UniProt Q13470);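 also: values are averaged percent inhibition of TNK1, compounds from the GSK published kinase inhibitor set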
- Sequence (Q13470 whole entry): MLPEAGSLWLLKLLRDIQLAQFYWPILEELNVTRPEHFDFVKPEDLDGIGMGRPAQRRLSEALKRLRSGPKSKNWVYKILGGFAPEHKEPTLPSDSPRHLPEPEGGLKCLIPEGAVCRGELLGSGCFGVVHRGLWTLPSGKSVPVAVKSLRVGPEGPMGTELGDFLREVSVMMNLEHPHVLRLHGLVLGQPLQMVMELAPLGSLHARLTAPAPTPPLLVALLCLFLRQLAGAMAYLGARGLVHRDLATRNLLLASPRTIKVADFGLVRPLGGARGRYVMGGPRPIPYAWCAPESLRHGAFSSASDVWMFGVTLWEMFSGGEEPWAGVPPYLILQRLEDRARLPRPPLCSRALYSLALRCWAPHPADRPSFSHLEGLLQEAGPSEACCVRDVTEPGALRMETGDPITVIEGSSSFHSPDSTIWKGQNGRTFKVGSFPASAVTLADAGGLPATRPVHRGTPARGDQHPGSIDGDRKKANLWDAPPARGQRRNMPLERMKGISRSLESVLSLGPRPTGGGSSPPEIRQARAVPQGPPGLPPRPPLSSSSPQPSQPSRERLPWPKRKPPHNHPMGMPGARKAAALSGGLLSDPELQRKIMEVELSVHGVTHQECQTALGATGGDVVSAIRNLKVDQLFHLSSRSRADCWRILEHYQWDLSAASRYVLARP
- Experimental context: at 1 µM
# Lookup of reported inhibition keyed by entry
Reported property: inhibition

# Compound, Test target, Reported property, Reported result
data = [
    ("NS(=O)(=O)c1ccc(Nc2ncc(-c3ccccc3)o2)cc1", "Non-receptor tyrosine-protein kinase TNK1 (Homo sapiens) (UniProt Q13470)", "inhibition", "18.5%"),
    ("Nc1nc(-c2cccc(Cl)c2)c(-c2ccc3ncccc3n2)s1", "Non-receptor tyrosine-protein kinase TNK1 (Homo sapiens) (UniProt Q13470)", "inhibition", "11.5%"),
    ("CNC(=O)c1cc(-c2ccc(F)cc2)cc(-c2ccc(S(=O)(=O)N3CCCC3)cc2)c1N", "Non-receptor tyrosine-protein kinase TNK1 (Homo sapiens) (UniProt Q13470)", "inhibition", "2.41%"),
    ("COC(=O)c1sc(-n2cnc3cc(OC)c(OC)cc32)cc1OCc1ccccc1C(F)(F)F", "Non-receptor tyrosine-protein kinase TNK1 (Homo sapiens) (UniProt Q13470)", "inhibition", "4.49%"),
    ("c1ccc(-c2nc3n(c2-c2ccc4c(c2)OCO4)CCC3)nc1", "Non-receptor tyrosine-protein kinase TNK1 (Homo sapiens) (UniProt Q13470)", "inhibition", "0.08%"),
    ("COc1ccc(-c2nn3ncccc3c2-c2ccnc(Nc3ccc4c(c3)OCCO4)n2)cc1", "Non-receptor tyrosine-protein kinase TNK1 (Homo sapiens) (UniProt Q13470)", "inhibition", "51.1%"),
    ("COC(=O)Nc1nc2ccc(S(=O)(=O)c3ccc(NC(=O)Nc4cc(C(F)(F)F)ccc4F)cc3)cc2[nH]1", "Non-receptor tyrosine-protein kinase TNK1 (Homo sapiens) (UniProt Q13470)", "inhibition", "-6.28%"),
    ("FC(F)(F)c1cccc(-c2nn3ncccc3c2-c2ccnc(Nc3ccc4c(c3)OCCO4)n2)c1", "Non-receptor tyrosine-protein kinase TNK1 (Homo sapiens) (UniProt Q13470)", "inhibition", "5.7%"),
    ("CCn1c(-c2nonc2N)nc2ccccc21", "Non-receptor tyrosine-protein kinase TNK1 (Homo sapiens) (UniProt Q13470)", "inhibition", "4.19%"),
    ("c1cc(-c2cnn3nc(N4CCOCC4)ccc23)nc(NC2CC2)n1", "Non-receptor tyrosine-protein kinase TNK1 (Homo sapiens) (UniProt Q13470)", "inhibition", "17.8%"),
    ("COc1cc2ncn(-c3cc(OCc4ccccc4C(F)(F)F)c(C(=O)N(C)C)s3)c2cc1OC", "Non-receptor tyrosine-protein kinase TNK1 (Homo sapiens) (UniProt Q13470)", "inhibition", "48.7%"),
    ("COc1cc(N2CCN(C(C)C)CC2)ccc1Nc1nc(Nc2ccc(F)cc2C(N)=O)c2cc[nH]c2n1", "Non-receptor tyrosine-protein kinase TNK1 (Homo sapiens) (UniProt Q13470)", "inhibition", "74.1%"),
    ("Fc1ccc(-c2nn3ccccc3c2-c2ccncc2)cc1", "Non-receptor tyrosine-protein kinase TNK1 (Homo sapiens) (UniProt Q13470)", "inhibition", "0.91%"),
    ("CN1CCC(n2cnc(-c3ccc(F)cc3)c2-c2ccnc(Nc3ccccc3)n2)CC1", "Non-receptor tyrosine-protein kinase TNK1 (Homo sapiens) (UniProt Q13470)", "inhibition", "7.4%"),
    ("CCNC(=O)O[C@H]1CN[C@H](C#Cc2cc3ncnc(Nc4ccc(OCc5cccc(F)c5)c(Cl)c4)c3s2)C1", "Non-receptor tyrosine-protein kinase TNK1 (Homo sapiens) (UniProt Q13470)", "inhibition", "10.3%"),
    ("CN(C)CCOc1ccc(-c2nc(-c3ccncc3)c(-c3ccc4c(c3)CC/C4=N\\O)[nH]2)cc1", "Non-receptor tyrosine-protein kinase TNK1 (Homo sapiens) (UniProt Q13470)", "inhibition", "10.2%"),
    ("CS(=O)(=O)CCNCc1ccc(-c2ccc3ncnc(Nc4ccc(OCc5ccccc5)c(C(F)(F)F)c4)c3c2)o1", "Non-receptor tyrosine-protein kinase TNK1 (Homo sapiens) (UniProt Q13470)", "inhibition", "9.92%"),
    ("CCCN1CCC(c2ccc(Nc3nc(Nc4cc(F)ccc4C(N)=O)c4cc[nH]c4n3)c(OC)c2)CC1", "Non-receptor tyrosine-protein kinase TNK1 (Homo sapiens) (UniProt Q13470)", "inhibition", "92.8%"),
    ("CC1=C(C(=O)Nc2cc(Cl)c3[nH]ncc3c2)C(c2ccc(C(F)(F)F)cc2)CC(=O)N1 (centres undefined)", "Non-receptor tyrosine-protein kinase TNK1 (Homo sapiens) (UniProt Q13470)", "inhibition", "3.87%"),
]
